TESTED_ON: UniProt P14902
Sequence (P14902 whole entry): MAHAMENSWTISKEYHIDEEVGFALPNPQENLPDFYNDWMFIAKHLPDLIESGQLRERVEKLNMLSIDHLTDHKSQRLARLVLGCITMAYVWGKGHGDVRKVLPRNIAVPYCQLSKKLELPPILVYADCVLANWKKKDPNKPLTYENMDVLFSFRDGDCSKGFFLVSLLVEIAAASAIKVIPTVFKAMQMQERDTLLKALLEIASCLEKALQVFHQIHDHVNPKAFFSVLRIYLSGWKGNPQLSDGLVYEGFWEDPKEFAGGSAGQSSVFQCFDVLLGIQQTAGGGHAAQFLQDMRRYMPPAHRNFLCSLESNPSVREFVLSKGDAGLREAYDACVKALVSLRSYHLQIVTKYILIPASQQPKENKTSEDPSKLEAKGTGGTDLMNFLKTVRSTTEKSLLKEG
EXPERIMENTAL_DETAILS: IDO1 Cellular Assay in HeLa Cells Stimulated with IFNγ
Assay type: cell-based
ASSAY_SETUP: about 48 hours, read-out: Hela IC50
Protocol: Biological Assays IDO1 Cellular Assay in HeLa Cells Stimulated with IFNγ HeLa cells were cultured in complete HeLa culture medium (90% EMEM, 10% heat-inactivated fetal bovine serum) and expanded to about 1×10^9 cells. […] Frozen HeLa cells were thawed and transferred into HeLa assay medium (99% complete HeLa culture medium, 1% Pen/Strep) with 20 mL medium/vial of cells. […] The cells were then counted and adjusted to a density of 2×10^5 cells/mL in HeLa assay medium. […]
pIC50: −log10 of the molar value.
MEASUREMENT_LABEL: pIC50

Examples with their reported pIC50 follow.
| MOLECULE | TESTED_ON | pIC50 |
| --- | --- | --- |
| C[C@H](C(=O)Nc1ccc(F)cc1)c1ccc2c(c1)CCCN2C(=O)[C@@H]1CCCCO1 (single isomer, unassigned) | UniProt P14902 | 8.51 |
| CC(C)CC(=O)N1CCCc2cc(CNC(=O)c3cccc(Cl)c3)ccc21 | UniProt P14902 | 6.99 |
| CC(NC(=O)c1ccc(F)cc1)c1ccc2c(n1)CCCN2C(=O)c1cccc(C#N)c1 (centres unmarked) | UniProt P14902 | 8.77 |

(a) CC(NC(=O)c1ccc(F)cc1)c1ccc2c(n1)C(O)CCN2C(=O)C1CC1 (centres unmarked) [Example 196]
(b) CC(C)CC(=O)N1CCCc2cc(CNC(=O)c3ccc(C(F)(F)F)cc3)ccc21
(c) Cc1nccc(N2CCCc3nc(C4(C(=O)Nc5ccc(F)cc5)COC4)ccc32)n1
(d) CC(NC(=O)c1ccc(F)cc1)c1ccc2c(n1)CCCN2C(=O)c1ncccc1F (centres unmarked) [Example 283, 2,2,2-trifluoroacetate]
(e) CC(C)CC(=O)N1c2ccc(CNC(=O)c3ccc(Cl)cc3)cc2CCC1(C)C
Enquiry: In this exercise, place the 5 molecules in ascending sequence of their recorded pIC50. // respond by listing labels in the order requested
Return: a, e, b, d, c
(a: 6.47, e: 7.01, b: 7.37, d: 8.66, c: 8.91)

* * *

TESTED_ON: UniProt P14902
EXPERIMENTAL_DETAILS: IDO1 Cellular Assay in HeLa Cells Stimulated with IFNγ
Format: cell-based
ASSAY_SETUP: read-out: Hela IC50
Experimental: Biological Assays IDO1 Cellular Assay in HeLa Cells Stimulated with IFNγ HeLa cells were cultured in complete HeLa culture medium (90% EMEM, 10% heat-inactivated fetal bovine serum) and expanded to about 1×10^9 cells. […] Frozen HeLa cells were thawed and transferred into HeLa assay medium (99% complete HeLa culture medium, 1% Pen/Strep) with 20 mL medium/vial of cells. […] The cells were then counted and adjusted to a density of 2×10^5 cells/mL in HeLa assay medium. […]
Counter-ions that a name gives are not always drawn.
MEASUREMENT_LABEL: IC50 (nM)

// known answers, use as guide
| MOLECULE | IC50 [nM] |
| --- | --- |
| COc1ccnc(N2CCCc3nc(C(C)NC(=O)c4ccc(F)cc4)ccc32)c1 (stereo not shown) [Example 377] | 315 |
| CC(C(=O)Nc1ccc(F)cc1)c1ccc2c(n1)CCCN2c1ccnc(C2CC2)n1 (stereo not shown) [Example 367] | 1.81 |
| Cc1nccc(N2CCCc3nc(C4(C(=O)Nc5ccc(F)cc5)CC(O)C4)ccc32)n1 (stereo not shown) [Example 426, 2,2,2-trifluoroacetate] | 71 |

(P) O=C(OC1CC1)N1CCCc2nc(C3(C(=O)Nc4ccc(F)cc4)CCC3)ccc21 [Example 410]
(Q) CC(NC(=O)c1ccc(F)cc1)c1ccc2c(n1)CCCN2C(=O)OC(C)(C)C(F)(F)F (stereo not shown) [Example 312]
(R) CC(NC(=O)c1ccc(F)cc1)c1ccc2c(n1)CCCN2c1ccn2ncnc2n1 (stereo not shown) [Example 370]
Enquiry: List items by IC50 in falling order. Give me the labels in the order the question wants.
Return: R, Q, P

(I) O=C(Nc1ccc(F)cc1)C1(c2ccc3c(n2)CCCN3c2ccnc(C(F)(F)F)n2)CC2(CC2)C1 [Example 416]
(II) CC(NC(=O)c1ccc(F)cc1)c1ccc2c(n1)CCCN2C(=O)OC(C)c1cccnc1 (stereo not shown) [Example 318]
(III) C[C@H](NC(=O)c1ccc(F)cc1)c1ccc2c(n1)CCCN2c1cccc(=O)[nH]1 [Example 386, trifluoroacetate]
Enquiry: Arrange the 3 molecules by rising IC50, starting with the smallest. Field: ranking. Enter the labels in the order requested.
Return: I, II, III
(I: 0.79 nM, II: 19.8 nM, III: 41.4 nM)

(a) CC(C)Oc1cccc(N2CCCc3nc(C(C)NC(=O)c4ccc(Cl)cc4)ccc32)n1 (stereo not shown) [Example 353]
(b) Cc1ncc(N2CCCc3nc(C(C)NC(=O)c4ccc(Cl)cc4)ccc32)s1 (stereo not shown) [Example 356]
Enquiry: When the recorded IC50 values are compared, which is smaller: that of a or that of b ? // return label of chosen record
Return: b

(1) CC(NC(=O)c1ccc(F)cc1)c1ccc2c(n1)CCCN2C(=O)OCCn1ccnc1 (stereo not shown) [Example 328]
(2) CC(NC(=O)c1ccc(F)cc1)c1ccc2c(n1)CCCN2c1cc2n(n1)CCC2 (stereo not shown) [Example 369]
Enquiry: # min-compare on IC50 between 1 and 2 Let me know the label of the one you choose.
Return: 1
(1: 479 nM, 2: 697 nM)

// provenance: patent US12275729B2
